The reported numbers originate from PubChem BioAssay AID926.

Target: Thyrotropin receptor (Homo sapiens)
Test: qHTS Assay for Agonists of the Thyroid Stimulating Hormone Receptor;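 also: the control signal comes from parental cells without the receptor; % of control where 0% means no effect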
Details: HEK293-CNG-TSHR cells, membrane potential dye, cAMP; series mostly up to 57.1 µM
The whole screen tested about 73,000 compounds, of which about 350 (0.48%) were called active. Another 17% or so got no clear call; they are omitted. The entries come from a sample that favours actives as a whole.
observationType: activation

>  <molecule>
COC(=O)C(C(=O)OC)[C@@H]1CCCC(=O)C1

>  <assaySystem>
Thyrotropin receptor (Homo sapiens)

>  <activation>
-9.31% [at 11.4 µM] (inactive)

$$$$
>  <molecule>
CN1CCN(Cc2nc3c(c(=O)n(C)c(=O)n3C)n2Cc2cccc3ccccc23)CC1

>  <assaySystem>
Thyrotropin receptor (Homo sapiens)

>  <activation>
inactive

$$$$
>  <molecule>
COc1cccc(N2CCN(C3CC(=O)N(c4ccc(Cl)cc4)C3=O)CC2)c1 (configuration not stated)

>  <assaySystem>
Thyrotropin receptor (Homo sapiens)

>  <activation>
-19.1% [at 11.4 µM] (inactive)

$$$$
>  <molecule>
Cc1cc(C)cc(C#CC2C=CC(Oc3ccc(C4CCCC4)cc3)C(CO)O2)c1 (configuration not stated)

>  <assaySystem>
Thyrotropin receptor (Homo sapiens)

>  <activation>
5.07% [at 11.4 µM] (inactive)

$$$$
>  <molecule>
Cc1ccc(C(=O)N2CCN(C3CCCCC3)CC2)s1

>  <assaySystem>
Thyrotropin receptor (Homo sapiens)

>  <activation>
inactive

$$$$
>  <molecule>
Cc1ccc(CCn2c3c(c4ccccc42)CN(C)CC3)cn1

>  <assaySystem>
Thyrotropin receptor (Homo sapiens)

>  <activation>
inactive

$$$$

# input Fill in the blank: the reported activation of `Cc1cc(N=CC2=C(O)CCCC2=O)no1` is ____.
# output inactive

# input Param item: CC(=O)OCC1OC(C#CCCCc2ccccc2)C=CC1OC(C)=O (configuration not stated)
# output 0.607% [at 11.4 µM] (inactive)

# input Param item: `CC1(C)S[C@@H]2[C@@H](NC(=O)[C@@H](N)c3ccccc3)C(=O)N2[C@H]1C(=O)O`
# output inactive

# input Param item: `O=C(O)CCC(=O)NCc1ccc2[nH]c3c(c2c1)CCCC3`
# output inactive

# input Param item: `O=C(CCn1c(=O)oc2ccccc21)Nc1ccon1`
# output inactive

# input Param item: O=C(CC(Cc1ccccc1)C(=O)O)NCCc1ccc2c(c1)OCO2 (configuration not stated)
# output inactive

----------
Measured activation of individual entries
Assay: qHTS Assay for Agonists of the Thyroid Stimulating Hormone Receptor;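 also: the control signal comes from parental cells without the receptor; % of control where 0% means no effect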
Conditions: HEK293-CNG-TSHR cells (CNG channel as cAMP sensor), membrane potential dye, cAMP; measured here: parental cells max response
The whole screen tested about 73,000 compounds, of which about 350 (0.48%) were called active. Not shown: some 17% with an inconclusive outcome. The list comes from a sample in which actives are over-represented; it also holds close analogues and randomly drawn compounds.
For clarity, give the value followed by its unit.

See these solved cases before continuing.
>  <molecule>
Cc1ccc2nc(-c3ccccc3)cc(C(=O)O)c2c1

>  <activation>
-5.12%

$$$$
>  <molecule>
Cc1ccc(S(=O)(=O)N2CCCC2C(=O)NCc2ccco2)cc1 (stereo unspecified)

>  <activation>
-0.0422%

$$$$
>  <molecule>
Cc1cc(NS(=O)(=O)c2ccccc2)no1

>  <activation>
1.38%

$$$$

# input Fill in the blank: the reported activation of `CCC(C)(C)N=C(NC#N)Nc1cccnc1` is ____.
# output 0.273%

# input Param item: CC(=O)OCC1OC(C#CCCCc2ccccc2)C=CC1OC(C)=O (stereo unspecified)
# output -0.905%

# input Param item: C1CCC2OC2C1 (stereo unspecified)
# output 21.9%

# input Param item: O=C1OC(NC(=O)c2ccccc2)C(N2CCOCC2)=C1Cl (stereo unspecified)
# output 4.11%

# input Param item: CCOC(=O)[C@]1(C(/C=C/c2ccco2)NC(=O)OC)CCCC1=O (stereo partly specified)
# output 0.322%

# input Param item: C#CCC(C(=O)OC)(C(=O)OC)C(C[N+](=O)[O-])c1ccccc1 (stereo unspecified)
# output -0.955%

# input Param item: `c1nc(COc2nsnc2N2CCOCC2)cs1`
# output -7.01%

# input Param item: CSc1ccc(Cl)c(C(=O)OCC(=O)N2CC(C)OC(C)C2)c1 (stereo unspecified)
# output 6.62%

# input Param item: `CCN(CC)CCCCn1c(-c2ccccc2)nc2c(N3CCOCC3)nc(C)nc21`
# output 25%

# input Param item: `COC(=O)[C@@]1(Cc2ccc(F)cc2)[C@H]2c3cc(C(=O)N4CCCC4)n(C[C@H](O)CO)c3C[C@H]2CN1C(=O)c1ccccc1`
# output 12.9%

# input Param item: `O=P(c1cccs1)(c1cccs1)c1cccs1`
# output 29%

# input Param item: `CC(C)(C)c1ccc(NC(=O)NCc2ccco2)cc1`
# output 3.69%

# input Param item: `Cc1cc2nc3c(=O)[nH]c(=O)nc-3n(C[C@H](O)[C@H](O)[C@H](O)CO)c2cc1C`
# output 35.7%
